Assignment: determine reported GI50 for the given compounds.
System: HT-29
Assay: NCI tumour cell line growth inhibition, 48 h
Active and inactive are the calls of the source. No stated cut-off is given here; in the data, active = GI50 up to about 1.1 µM and inactive = higher.

input: // output GI50; input Cc1cc(C)c(C#N)c(SC(=S)NC(=O)c2ccccc2)n1 ; system HT-29
output: > 100 µM (inactive)

input: // output GI50; input O=C(/C=C/c1ccsc1)c1cccs1 ; system HT-29
output: 36.9 µM (inactive)

input: // output GI50; input COC(=O)c1cc2c(o1)Sc1ccccc1NC2=O ; system HT-29
output: > 100 µM (inactive)

input: // output GI50; input Cc1cc(N(CCC#N)CCC#N)ccc1/N=N/c1ccc([N+](=O)[O-])cc1 ; system HT-29
output: > 100 µM (inactive)

input: // output GI50; input Oc1ccc2ccccc2c1-c1c(Nc2ccccc2)ccc2ccccc12 ; system HT-29
output: 33.7 µM (inactive)

input: // output GI50; input CCSC12OC3(CCCCCN3C1=O)C1C(=O)N(c3ccccc3)C(=O)C12 (stereo not given) ; system HT-29
output: > 100 µM (inactive)

input: // output GI50; input COC(=O)c1c(O)ccc2c1c1c(n2Cc2ccc(Cl)cc2Cl)C(=O)c2ccccc2C1 ; system HT-29
output: 79.6 µM (inactive)

input: // output GI50; input COc1cc(/C=C2/C(=O)N(C(=O)c3ccccc3O)N=C2C)cc(OC)c1OC ; system HT-29
output: 34.4 µM (inactive)

input: // output GI50; input COc1ccccc1/C=C1\SC(=S)N(/C=C2\C(=O)Oc3ccccc3C2=O)C1=O ; system HT-29
output: 38.7 µM (inactive)

input: // output GI50; input COc1cccc(C2c3cc4c(cc3OC(N3CCOCC3)C2C)OCO4)c1OC (stereo not given) ; system HT-29
output: 2.96 µM (inactive)

input: // output GI50; input CCCCCCCCCCCCCCNCC(OC)OC ; system HT-29
output: 3.78 µM (inactive)

input: // output GI50; input Cc1ccc2nc(/C(=C/c3ccc(/C=C(\NC(=O)c4ccccc4)c4nc5ccc(C)cc5[nH]4)c(C)c3)NC(=O)c3ccccc3)[nH]c2c1 ; system HT-29
output: 28.1 µM (inactive)

input: // output GI50; input CC/C(C)=C1\OC(=O)C(C)C(O)C(Cc2cccnc2)NC(=O)C(NC(=O)c2ncccc2O)C(C)OC1=O (stereo not given) ; system HT-29
output: 42.2 µM (inactive)

input: // output GI50; input O=S(=O)(c1ccccc1)C(CN1CCCCC1)S(=O)(=O)c1ccccc1 ; system HT-29
output: > 100 µM (inactive)

input: // output GI50; input NC(=S)N/N=C(/CC(=O)c1ccccc1)C(=O)Nc1ccc(Cl)c(Cl)c1 ; system HT-29
output: > 100 µM (inactive)

input: // output GI50; input CC(C)(O)/C=C\P(C)(=O)c1ccccc1 (stereo not given) ; system HT-29
output: > 100 µM (inactive)

input: // output GI50; input Cc1nc2c(n1Cc1ccc(F)cc1)C(=O)c1ccccc1C2=O ; system HT-29
output: 9.44 µM (inactive)

input: // output GI50; input O=C(O)c1ccc(/C=N\N(CCO)C2=NCCN2)cc1 ; system HT-29
output: > 100 µM (inactive)

input: // output GI50; input Cn1cc(NC(=O)c2cc(NC(=O)CCCCCCCC(=O)Nc3cc(C(=O)Nc4cc(C(=O)NCCC(=N)N)n(C)c4)n(C)c3)cn2C)cc1C(=O)NCCC(=N)N ; system HT-29
output: 63.1 µM (inactive)

input: // output GI50; input CC(C)NC1(C(N)=O)CCN(Cc2ccccc2)CC1 ; system HT-29
output: > 100 µM (inactive)
